Biological target: full-length human PRMT1 isoform 1 (GST-tagged) (Homo sapiens, UniProt Q99873)
Sequence (Q99873 with tags, fused parts or gaps): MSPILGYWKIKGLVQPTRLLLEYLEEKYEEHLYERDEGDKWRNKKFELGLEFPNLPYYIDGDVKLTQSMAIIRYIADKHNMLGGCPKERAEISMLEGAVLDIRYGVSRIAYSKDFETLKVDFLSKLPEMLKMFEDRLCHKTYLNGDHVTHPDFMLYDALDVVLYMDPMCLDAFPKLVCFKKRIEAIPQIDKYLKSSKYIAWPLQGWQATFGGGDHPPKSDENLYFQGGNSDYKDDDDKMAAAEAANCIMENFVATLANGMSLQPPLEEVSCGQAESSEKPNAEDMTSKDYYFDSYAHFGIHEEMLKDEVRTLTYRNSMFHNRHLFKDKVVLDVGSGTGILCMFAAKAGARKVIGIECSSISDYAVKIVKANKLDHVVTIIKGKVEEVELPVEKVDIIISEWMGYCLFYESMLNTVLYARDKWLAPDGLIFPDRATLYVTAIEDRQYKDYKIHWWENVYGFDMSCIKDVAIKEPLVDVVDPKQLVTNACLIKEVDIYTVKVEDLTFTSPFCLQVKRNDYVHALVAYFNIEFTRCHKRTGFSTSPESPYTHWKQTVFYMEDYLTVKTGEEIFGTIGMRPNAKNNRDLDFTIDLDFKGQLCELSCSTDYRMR
Assay: PRMT1 Biochemical Assay (3H-SAM Flashplate, peptide substrate)
Conditions: single experiment or average of multiple experiments
pIC50: −log10 of the molar value.
property_measured: pIC50

// below: answered compounds
1. CNCCN(C)Cc1c[nH]nc1C1CCC(CCOC)CC1 (centres unmarked) : 7.89
2. CNCCN(C)Cc1c[nH]nc1[C@H]1CC[C@H](C(=O)NCCOc2ccccc2)CC1 : 8.08
3. CNCCN(C)Cc1c[nH]nc1C1CCC(C)(C)[C@H](C(=O)NCCCOC)C1 (some centres unmarked) : 7.23

1 = CNCCN(C)Cc1cnn(C)c1C1CCC2(CCCC2)CC1
2 = CCOCC1CC(c2n[nH]cc2CN(C)CCNC)CC(COCC)C1(C)C (centres unmarked)
Field: entry with larger pIC50 (options 1 / 2 ). Use the label to indicate which entry you chose.
1

---

Molecular target: full-length human PRMT8 isoform 1 (Homo sapiens)
Sequence (Q9NR22 whole entry, canonical isoform): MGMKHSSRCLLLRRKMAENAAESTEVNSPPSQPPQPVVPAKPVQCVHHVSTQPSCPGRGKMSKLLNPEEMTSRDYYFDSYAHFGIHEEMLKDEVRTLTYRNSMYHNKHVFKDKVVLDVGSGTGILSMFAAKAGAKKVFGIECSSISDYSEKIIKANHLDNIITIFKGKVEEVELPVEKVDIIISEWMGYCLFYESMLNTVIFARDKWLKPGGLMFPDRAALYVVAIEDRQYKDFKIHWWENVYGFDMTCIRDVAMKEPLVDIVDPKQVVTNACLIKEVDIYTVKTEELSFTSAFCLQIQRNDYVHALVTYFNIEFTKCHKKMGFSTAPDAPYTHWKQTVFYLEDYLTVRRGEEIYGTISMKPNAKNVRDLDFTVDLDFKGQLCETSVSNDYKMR
Experiment: PRMT8 Biochemical Assay (3H-SAM Flashplate, peptide substrate)
Conditions: read-out: Biochemical IC50 PRMT8
pIC50: −log10 of the molar value.
Quick reference: pIC50 of the listed items.

// below: answered compounds
1. CNCCN(C)Cc1c[nH]nc1C1CCC(N(CC(C)C)C(=O)CC2CCOCC2)CC1 (centres unmarked) [Compound 114] : 6.00 to 7.00
2. CNCCN(C)Cc1c[nH]nc1[C@H]1CC[C@]2(CCC(C)(C)O2)CC1 [Compound 104] : > 7.00
3. CNCCN(C)Cc1c[nH]nc1C1CCC2(CC1)NC(=O)NC2=O (centres unmarked) [Compound 175] : > 7.00
4. CCOC1CC(OCC)CC(c2n[nH]cc2CN(C)CCNC)C1 (centres unmarked) [Compound 132] : 5.00 to 5.52
5. CNCCN(C)Cc1c[nH]nc1C1CCC(C)(C)C(C(=O)NCCCOC)C1 (centres unmarked) [Compound 93] : > 7.00

For the compound CNCCN(C)Cc1c[nH]nc1C1CCC(C)(C)[C@H](OCCCOC)C1 (some centres unmarked) [Compound 272] , the measured pIC50 on full-length human PRMT8 isoform 1 (Homo sapiens) was > 7.00

For the compound CNCCN(C)Cc1c[nH]nc1[C@H]1CC[C@H](N(CC2CCOCC2)C(=O)CC(C)C)CC1 [Compound 192] , the measured pIC50 on full-length human PRMT8 isoform 1 (Homo sapiens) was 6.00 to 7.00

For the compound CNCCN(C)Cc1c[nH]nc1[C@H]1CC[C@@H](N(CCCOC)C(=O)CCC(C)C)CC1 [Compound 244] , the measured pIC50 on full-length human PRMT8 isoform 1 (Homo sapiens) was 6.00 to 7.00

---

Molecular target: full-length human PRMT1 isoform 1 (GST-tagged) (Homo sapiens, UniProt Q99873)
Experiment: PRMT1 Biochemical Assay (3H-SAM Flashplate, peptide substrate)
Details: single experiment or average of multiple experiments
Structures can show the parent of a compound that is named as a salt.
property_measured: IC50 (nM)

// below: answered compounds
1. CC(C)Cc1n[nH]cc1CN(C)CCN [Compound 28] : 180
2. CNCCN(C)Cc1c[nH]nc1C1CCN(C(=O)CC(C)C)CC1 [Compound 40] : 20
3. CNCCN(C)Cc1c[nH]nc1[C@H]1CC[C@H](N(CC(C)C)C(=O)CCCOC)CC1 [Compound 248] : 13.2

a = CNCCN(C)Cc1cn(C)nc1[C@H]1CC[C@]2(CC1)CC(C)(C)CO2 [Compound 206, hydrochloride]
b = CNCCN(C)Cc1c[nH]nc1C#Cc1ccc(C(C)(C)C)cc1 [Compound 2]
c = CNCCN(C)Cc1c[nH]nc1[C@H]1CC[C@H](N(CC(C)C)C(=O)CC2CCOCC2)CC1 [Compound 193]
Hello, I need these entries ordered by IC50, highest reading first. Thanks! # respond with the labels, arranged in the requested order
c, a, b

1 = CNCCN(C)Cc1c[nH]nc1[C@H]1CC[C@H](C(=O)N(C)CCC(C)C)CC1 [Compound 209]
2 = CNCCN(C)Cc1c[nH]nc1[C@H]1CC[C@H](N(CCOc2ccccc2)C(=O)CCOC)CC1 [Compound 219]
Identify the entry with the smaller IC50: 1 or 2 . Use the label to indicate which entry you chose.
2
